Reference for the values: patent US20220089568A1

Tested on: MOLM-13 cells
Test: MOLM-13 Cellular Assay
Format: cell-based
Conditions: Homo sapiens, 72 hours exposure, cell viability by CellTiter-Glo
endpoint name: EC50 (nM)
Numbers only here, please. The scale is nM.

Query string: Identify measured EC50 associated with "CCn1c(CO)nn(-c2nc(O[C@@H](C)C(F)(F)F)c(C(=O)Nc3c(C)ccnc3C(F)F)cc2F)c1=O"
Result string: 3.3

Query string: Identify measured EC50 associated with "CCn1c(CO)nn(-c2nc(O[C@@H](C)C(F)(F)F)c(C(=O)Nc3c(F)cncc3C#N)cc2F)c1=O"
Result string: 4.4

Query string: Identify measured EC50 associated with "CCn1c(CF)nn(-c2nc(OC(C)C)c(C(=O)Nc3c(C)ccnc3Cl)cc2F)c1=O"
Result string: 1.06

Query string: Identify measured EC50 associated with "CCn1c(CF)nn(-c2nc(O[C@@H](C)C(F)(F)F)c(C(=O)Nc3c(F)cccc3Cl)cc2F)c1=O"
Result string: 0.037

Query string: Identify measured EC50 associated with "CCn1c(CO)nn(-c2nc(O[C@@H](C)C(F)(F)F)c(C(=O)Nc3c(C)cncc3F)cc2F)c1=O"
Result string: 21.1

Query string: Identify measured EC50 associated with "CCn1c(CO)nn(-c2nc(O[C@@H](C)C(F)(F)F)c(C(=O)Nc3nc(OC)ccc3F)cc2F)c1=O"
Result string: 5.2

Query string: Identify measured EC50 associated with "CCn1c(CO)nn(-c2nc(O[C@@H](C)C(F)(F)F)c(C(=O)Nc3c(C)ccnc3F)cc2F)c1=O"
Result string: 4.3

Query string: Identify measured EC50 associated with "CCn1c(CO)nn(-c2nc(O[C@@H](C)C(F)(F)F)c(C(=O)Nc3c(F)cncc3Cl)cc2F)c1=O"
Result string: 4.7

Query string: Identify measured EC50 associated with "CCn1c(CO)nn(-c2nc(O[C@@H](C)C(F)(F)F)c(C(=O)Nc3c(C)n[nH]c3C(F)(F)F)cc2F)c1=O"
Result string: 0.345

Query string: Identify measured EC50 associated with "CCn1c(CO)nn(-c2nc(O[C@@H](C)C(F)(F)F)c(C(=O)Nc3ncc(OC)cc3Cl)cc2F)c1=O"
Result string: 6.38

Query string: Identify measured EC50 associated with "Cc1n[nH]c(Cl)c1NC(=O)c1cc(F)c(-n2nc(CF)n(CCO)c2=O)nc1O[C@@H](C)C(F)(F)F"
Result string: 1.25

Query string: Identify measured EC50 associated with "CCCn1c(CO)nn(-c2nc(O[C@@H](C)C(F)(F)F)c(C(=O)Nc3c(C)ccnc3Cl)cc2F)c1=O"
Result string: 4.8

Query string: Identify measured EC50 associated with "CCn1c(CO)nn(-c2nc(O[C@@H](C)C(F)(F)F)c(C(=O)Nc3c(F)cnc(OC)c3Cl)cc2F)c1=O"
Result string: 1.3

Query string: Identify measured EC50 associated with "CCn1c(CO)nn(-c2nc(O[C@@H](C)C(F)(F)F)c(C(=O)Nc3c(C)cnc(OC)c3Cl)cc2F)c1=O"
Result string: 0.3

###

Test system: MOLM-13 cells
Assay: MOLM-13 Cellular Assay
Format: cell-based
Details: Homo sapiens, 72 hours exposure, cell viability by CellTiter-Glo
endpoint name: pEC50
API: returns pEC50 as number; meaning -log10 of concentration in mol/L.

Query string: Identify measured pEC50 associated with CCn1c(C(C)O)nn(-c2nc(O[C@@H](C)C(F)(F)F)c(C(=O)Nc3c(C)n[nH]c3C(F)(F)F)cc2F)c1=O (mixture of isomers)
Result string: 9.03

Query string: Identify measured pEC50 associated with "CCn1c(CO)nn(-c2nc(O[C@@H](C)C(F)(F)F)c(C(=O)Nc3nc(OC)ccc3Cl)cc2F)c1=O"
Result string: 8.74

Query string: Identify measured pEC50 associated with "CCn1c(CO)nn(-c2nc(O[C@@H](C)C(F)(F)F)c(C(=O)Nc3c[nH]nc3C3CC3)cc2F)c1=O"
Result string: 8.07

Query string: Identify measured pEC50 associated with "CCn1c(CF)nn(-c2nc(O[C@@H](C)C(F)(F)F)c(C(=O)Nc3c(C)ccnc3Cl)cc2F)c1=O"
Result string: 8.94

Query string: Identify measured pEC50 associated with "CCn1c(CO)nn(-c2nc(O[C@@H](C)C(F)(F)F)c(C(=O)Nc3ccncc3Cl)cc2F)c1=O"
Result string: 7.22

Query string: Identify measured pEC50 associated with "CCCn1c(CO)nn(-c2nc(O[C@@H](C)C(F)(F)F)c(C(=O)Nc3c(C)n[nH]c3Cl)cc2F)c1=O"
Result string: 8.69

Query string: Identify measured pEC50 associated with "CCn1c(CO)nn(-c2nc(O[C@@H](C)C(F)(F)F)c(C(=O)Nc3c(Cl)ccnc3OC)cc2F)c1=O"
Result string: 9.48

Query string: Identify measured pEC50 associated with "CCn1c(CO)nn(-c2nc(O[C@@H](C)C(F)(F)F)c(C(=O)Nc3ncsc3C)cc2F)c1=O"
Result string: 7.60

Query string: Identify measured pEC50 associated with "CCn1c(CO)nn(-c2nc(O[C@@H](C)C(F)(F)F)c(C(=O)Nc3ccnc(OC)c3Cl)cc2F)c1=O"
Result string: 8.00

Query string: Identify measured pEC50 associated with "CCn1c(CO)nn(-c2nc(O[C@@H](C)C(F)(F)F)c(C(=O)Nc3c(Cl)c[nH]c(=O)c3Cl)cc2F)c1=O"
Result string: 6.35

Query string: Identify measured pEC50 associated with "CCn1c(CO)nn(-c2nc(O[C@@H](C)C(F)(F)F)c(C(=O)Nc3c(F)ccnc3OC)cc2F)c1=O"
Result string: 8.95

Query string: Identify measured pEC50 associated with "CCn1c(CO)nn(-c2nc(O[C@@H](C)C(F)(F)F)c(C(=O)Nc3cc(C)cnc3C)cc2F)c1=O"
Result string: 7.28

###

System: MOLM-13 cells
Assay: MOLM-13 Cellular Assay
Assay type: cell-based
Settings: Homo sapiens, 72 hours exposure, cell viability by CellTiter-Glo
Field: EC50. Provide a value for each of the compounds that follow.
Numbers only here, please. The scale is nM.

Query string: Identify measured EC50 associated with CCn1c(CO)nn(-c2nc(O[C@@H](C)C(F)(F)F)c(C(=O)Nc3c(C)cc(Cl)nc3OC)cc2F)c1=O [Example 113]
Result string: 0.416

Query string: Identify measured EC50 associated with CCn1c(CO)nn(-c2nc(O[C@@H](C)C(F)(F)F)c(C(=O)Nc3cc(Cl)cnc3C)cc2F)c1=O [Example 52]
Result string: 68.9

Query string: Identify measured EC50 associated with CCn1c(CO)nn(-c2nc(O[C@@H](C)C(F)(F)F)c(C(=O)Nc3c[nH]nc3C(F)(F)F)cc2F)c1=O [Example 95]
Result string: 1.23

Query string: Identify measured EC50 associated with CCn1c(CO)nn(-c2nc(O[C@@H](C)C(F)(F)F)c(C(=O)Nc3c(F)cnc(OC)c3C#N)cc2F)c1=O [Example 117]
Result string: 15.6

Query string: Identify measured EC50 associated with CCn1c(CO)nn(-c2nc(O[C@@H](C)C(F)(F)F)c(C(=O)Nc3c(C)cc(C)nc3Cl)cc2F)c1=O [Example 72]
Result string: 1.4

Query string: Identify measured EC50 associated with CCCn1c(CF)nn(-c2nc(O[C@@H](C)C(F)(F)F)c(C(=O)Nc3c(C)ccnc3Cl)cc2F)c1=O [Example 92]
Result string: 0.435

###

Molecular target: human DHODH (Homo sapiens)
Sequence (Q02127 whole entry): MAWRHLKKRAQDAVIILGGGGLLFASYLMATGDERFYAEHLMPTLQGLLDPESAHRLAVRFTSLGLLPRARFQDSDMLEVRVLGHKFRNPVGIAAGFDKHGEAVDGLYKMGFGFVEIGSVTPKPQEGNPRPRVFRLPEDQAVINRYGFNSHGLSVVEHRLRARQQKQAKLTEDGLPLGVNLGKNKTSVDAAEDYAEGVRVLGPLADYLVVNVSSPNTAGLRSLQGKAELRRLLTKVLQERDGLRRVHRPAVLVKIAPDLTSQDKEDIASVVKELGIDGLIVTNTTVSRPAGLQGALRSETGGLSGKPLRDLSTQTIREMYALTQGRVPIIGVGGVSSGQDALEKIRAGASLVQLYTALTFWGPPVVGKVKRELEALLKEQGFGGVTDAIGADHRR
Assay: DHODH Enzymatic Assay
Details: purified human DHODH; DCIP absorbance, end-point mode
endpoint name: pEC50
API: returns pEC50 as number; meaning -log10 of concentration in mol/L.

Query string: Identify measured pEC50 associated with "CCn1c(CO)nn(-c2nc(O[C@@H](C)C(F)(F)F)c(C(=O)Nc3nccn3C3CC3)cc2F)c1=O"
Result string: 7.02

Query string: Identify measured pEC50 associated with "Cc1ccnc(Cl)c1NC(=O)c1cc(F)c(-n2nc(CF)n(CCO)c2=O)nc1O[C@@H](C)C(F)(F)F"
Result string: 7.69

Query string: Identify measured pEC50 associated with "CCn1c(CO)nn(-c2nc(O[C@@H](C)C(F)(F)F)c(C(=O)Nc3c(C)ccnc3Cl)cc2F)c1=O"
Result string: 8.92

Query string: Identify measured pEC50 associated with "CCn1c(CO)nn(-c2nc(O[C@@H](C)C(F)(F)F)c(C(=O)Nc3cc(OC)ncc3Cl)cc2F)c1=O"
Result string: 7.04

Query string: Identify measured pEC50 associated with "CCn1c(CO)nn(-c2nc(O[C@@H](C)C(F)(F)F)c(C(=O)Nc3c(C)n[nH]c3C)cc2F)c1=O"
Result string: 8.19

Query string: Identify measured pEC50 associated with "CCn1c(CO)nn(-c2nc(O[C@@H](C)C(F)(F)F)c(C(=O)Nc3c(C)ccnc3C(F)F)cc2F)c1=O"
Result string: 8.66

Query string: Identify measured pEC50 associated with "CCn1c(CO)nn(-c2nc(O[C@@H](C)C(F)(F)F)c(C(=O)Nc3ncnc(C)c3Cl)cc2F)c1=O"
Result string: 6.60

Query string: Identify measured pEC50 associated with "CCn1c(CO)nn(-c2nc(O[C@@H](C)C(F)(F)F)c(C(=O)Nc3nc(OC)ccc3Cl)cc2F)c1=O"
Result string: 8.92

Query string: Identify measured pEC50 associated with "CCn1c(CO)nn(-c2nc(O[C@@H](C)C(F)(F)F)c(C(=O)Nc3c(C)cc(C)nc3Cl)cc2F)c1=O"
Result string: 9.05

Query string: Identify measured pEC50 associated with "CCn1c(CO)nn(-c2nc(O[C@@H](C)C(F)(F)F)c(C(=O)Nc3c(C)nn(C)c3C)cc2F)c1=O"
Result string: 7.76

Query string: Identify measured pEC50 associated with "CCn1c(CO)nn(-c2nc(O[C@@H](C)C(F)(F)F)c(C(=O)Nc3snc(C)c3Br)cc2F)c1=O"
Result string: 6.63

Query string: Identify measured pEC50 associated with "CCn1c(CO)nn(-c2nc(O[C@@H](C)C(F)(F)F)c(C(=O)Nc3cc(Cl)cnc3C)cc2F)c1=O"
Result string: 7.89

Query string: Identify measured pEC50 associated with "CCn1c(CO)nn(-c2nc(O[C@@H](C)C(F)(F)F)c(C(=O)Nc3c[nH]nc3C)cc2F)c1=O"
Result string: 8.77
